System: MDA-MB-468 breast
Assay: NCI-60 one-dose screen, 48 h (100 = growth as untreated, 0 = no growth, -100 = all killed)
Conditions: 10 µM unless noted
About 83,000 compounds went through this panel and 20% of them were active in at least one assay; those are over-represented in the sample as a whole.

Compound	growth, %
CNC(=O)c1cccc(Cn2nc(C)c(NC(=O)c3ccc(COc4ccc(C(F)(F)F)cc4C)cc3)c2C)c1	-6.26
O=c1ccc2nc(-c3ccccc3)nn(-c3ccccc3)c-2c1	-81.6
CC(C)(C)c1ccc(OC(=O)Nc2ccccc2)cc1	112
O=c1n(C2OC(CO)C(O)C2O)ccc2nccn12 (stereo unspecified)	122
COc1cnc2c(c1)C(=O)c1c-2n(CCCN2CCC(O)CC2)c(=O)c2cc(F)ccc12	-57.2
COc1ccc(OCC(=O)OC(C)C)cc1	84.3
O=S(=O)(c1cc(Cl)ccc1O)c1cc(Cl)ccc1O	63.1
O=C(CCc1nc(-c2cccc(Cl)c2)no1)Nc1ccccn1	83.1
COc1ccc(CNc2c3ccccc3nc3ccccc23)cc1F	-18.7
O=c1[nH]c2ccccc2cc1-c1nnc(Cc2ccccc2)o1	53.9
COc1ccc(/C=C/C(=C/c2c(O)[nH]c3cc(Br)ccc23)N=O)cc1	114
CN(C)C1CCN(C(=O)c2ccc(NC(=O)Nc3ccc(-c4nc(N5CCOCC5)c5cccn5n4)cc3)cc2)CC1	-60.1
Cc1ccccc1N1CCN(C2=C(Cl)C(=O)c3ncccc3C2=O)CC1	-68.8
CCCCCSc1ccc2nc(NC(=O)OCCC)sc2c1	9.55
N#Cc1ncc(-c2cc(F)c(F)c(F)c2)c(NC2CCCCCC2)n1	87.6
N#Cc1c(NC(=O)c2ccc(Br)cc2)sc2c1CCCC2	19.5
C=C1c2c(C)nn(-c3ccc(C#CCOC4OC(CO)C(O)C(O)C4O)cc3)c2N(C)C23C[C@H]1C1(C)c4c(C)nn(-c5ccc(C#CCOC6OC(CO)C(O)C(O)C6O)cc5)c4N(C)C(C)(C[C@H]12)C3 (stereo partly specified)	-16.4
CCOC(=O)c1ccc(N2NC(=O)/C(=C/c3ccc([N+](=O)[O-])o3)C2=O)cc1	106
COc1ccc(C2C(c3ccccc3)C(=O)N2c2cc(OC)c(OC)c(OC)c2)cc1I (stereo unspecified)	15.7
COc1cc(-c2nc3occn3c2-c2ccnc(NCCCNS(=O)(=O)c3ccccc3)n2)ccc1F	5.92
COc1cc2nc(Cl)nc(Nc3cccc(C(=O)/C=C/c4ccccc4)c3)c2cc1OC	68.9
COc1ccccc1S(=O)(=O)Nc1ccc2c(c1)CN(C)C(=O)N2	21.1
CN(C)Cc1cccs1	87.2
COC(=O)/C=C1/SC(=Nc2ccc([N+](=O)[O-])cc2)N(CCc2c[nH]c3ccc(O)cc23)C1=O	56.8
CCOC(=O)C(=Cc1ccc(-c2ccccc2)cc1)C(=O)OCC	53
C=CCn1c(SCC(=O)Nc2ccc(C(=O)/C=C/c3cc(OC)c(OC)c(OC)c3)cc2)nnc1-c1c[nH]c2ccccc12	37
CCCCNc1nc(NN2C(=O)c3cccc4cccc(c34)C2=O)nc(-n2cnc3ccccc32)n1	92.7
CO[C@H]1CC(O[C@@H]2/C(C)=C/C[C@@H]3C[C@@H](C[C@]4(CC[C@H](C)[C@@H](C5CCCCC5)O4)O3)OC(=O)[C@@H]3C=C(C)/C(=N/O)[C@H]4OC/C(=C\C=C\[C@@H]2C)[C@]43O)O[C@@H](C)C1O (stereo partly specified)	-87
CC(C)CCOC(=O)c1ccccc1	115
CNC(=O)c1cccnc1	106
Nc1ccc2c(c1Br)Cc1ccccc1-2	111
COc1ccc(C2=Nn3c(nnc3-c3ccc(Cl)cc3N)SC2)cc1	100
Cc1cc2c3ccc(C)[n+](C)c3ccc2n1C	19.1
NC(N)=Nc1ccc(Oc2cccc(Nc3ccc(Br)c(C(F)(F)F)c3)c2)cc1	-10.6
C#CCOc1cc(/C=N/Nc2nc(-c3ccc(OC)cc3)cs2)ccc1O	43
CCN(CC)CCN1C(=O)c2c(c(C)c3c(oc4cc(OC)ccc43)c2C)C1=O	114

Origin of the recorded values: PubChem BioAssay (NCI)
